Entries annotated with measured kon
Molecular target: T1, recombinant human EGFR extracellular domain with 6xHis (human, UniProt P00533 25-645)
T1 construct: In-house produced; also called 6xHis EGFR ECD; soluble human EGFR ECD; not shown: 6xHis tag
Assay: SPR (BIAcore 2000); IgG captured on anti-human Fc, soluble monovalent EGFR ECD injected
Description: Kinetic analysis of the full length IgG antibodies of the invention was performed on a BIAcore 2000, employing an assay as described in (Canziani, Klakamp, et al. 2004, Anal. Biochem, 325:301-307) allowing measurement of monovalent affinities of whole IgG molecules against soluble antigen. […] The association rate constant (ka) and dissociation constant (kd) were evaluated globally from the generated sensograms with the BIA evaluation software 4.1 provided by the manufacturer.
Measure: kon (M⁻¹ s⁻¹)

Binder	Measure	Value units	Test value
antibody 1024 (antibody, human IgG1, kappa, V domains shown, Chimeric IgG1 kappa) VH: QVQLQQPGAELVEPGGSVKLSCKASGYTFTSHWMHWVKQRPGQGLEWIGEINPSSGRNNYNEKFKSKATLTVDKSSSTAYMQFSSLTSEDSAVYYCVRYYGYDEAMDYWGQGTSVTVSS VL: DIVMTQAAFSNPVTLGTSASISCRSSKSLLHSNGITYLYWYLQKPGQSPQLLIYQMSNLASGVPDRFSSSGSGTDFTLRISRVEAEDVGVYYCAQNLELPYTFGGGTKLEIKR	kon	M⁻¹ s⁻¹	180000
antibody 1284 (antibody, human IgG1, kappa, V domains shown, Chimeric IgG1 kappa) VH: QVQLQQPGAELVKPGASVKLSCKASGYTFTSDWMHWMKQRPGQGLEWIGEINPSNGRSSYNEKFKSKATLTVDKSSSTAYMQLSSLTSEDSAVYYCARIGGIYVETYWGQGTLVTVSS VL: DIVLTQSPASLAVSLGQRATISCRASQSVSTSTYSYMHWYQQKSGQPPKLLIKYASNLESGVPARFSGSGSGTDFTLNIHPVEEEDTATYYCQHSWEIPWTFGGGTKLEIKR	kon	M⁻¹ s⁻¹	32000
antibody 1347 (antibody, human IgG1, kappa, V domains shown, Chimeric IgG1 kappa) VH: QVQLKESGPGLVAPSQSLSITCTVSGFSLTGHGVNWVRQPPGKGLEWLGMIWGDGSTDYNSTLKSRLSISKDNSKSQVFLKMNSLQTDDTARYYCARGYGYLYYFDYWGQGTTLTVSS VL: ENVLTQSPAIMSASPGEKVTMTCRASSSVSSSYLHWYQQKSGASPKLWIYSTSNLASGVPARFSGSGSGTSYSLTVNSVETEDAATYYCHQYSGFPFTFGSGTKLELKR	kon	M⁻¹ s⁻¹	24000
